- test-description: Heat age stability of HEUR-biocide formulation (appearance after heat aging)
- Format: physicochemical
- condition-label: biocide admixed with HEUR rheology modifier (RM-2020E or RM-8W); oven 50° C. for 2 weeks
assay-readout: Sample Appearance after Heat Age testing

INSERT INTO measurements (compound, assay_readout, assay_result) VALUES
  ('Oc1ccccc1-c1ccccc1', 'Sample Appearance after Heat Age testing', 'White'),
  ('C/C=C/C=C/C(=O)[O-].[K+] [Potassium sorbate]', 'Sample Appearance after Heat Age testing', 'Brown'),
  ('[Na+].[O-]c1ccccc1-c1ccccc1 [Sodium o-phenylphenolate]', 'Sample Appearance after Heat Age testing', 'White');

Numbers sourced from patent US20220354119A1.
